tested on: constitutively active mTOR; test: Test 3: TSC Assay (high content imaging of phospho-S6 (240/244) in TSC1−/− MEFs); assay type: cell-based; settings: Mus musculus, pS6 240/244 staining, 2 hrs compound treatment
RESULT TYPE: log10 of IC50 (log10 of the value in nM)
Each number you see is log10 of IC50, and the unit inside the log is nM.

Some molecules with known log10 of IC50 results, for comparison:
• C[C@@H]1COCCN1c1nc(N2CCOC[C@@H]2C)nc2[nH]c(-c3cccc4c3CCN4)nc12 [Example 41] = 2.66
• C[C@H]1COCCN1c1nc(N2CCOCC2)c2nc(-c3ccc4cc[nH]c4c3)[nH]c2n1 [Example 49] = 2.83
• C[C@H]1COCCN1c1nc(N2CCOCC2)nc2[nH]c(-c3cccc4[nH]ccc34)nc12 [Example 23] = 2.14
• C[C@@H]1COCCN1c1nc(N2CCOCC2)nc2[nH]c(-c3cccc4[nH]ccc34)nc12 [Example 20] = 1.95

Now look at this one.
Complete the entry with log10 of IC50 for C[C@@H]1COCCN1c1nc(N2CCOC[C@@H]2C)c2nc(-c3cccc4[nH]ccc34)[nH]c2n1 [Example 18] 1.85

###

target: UniProtKB P42336; test: Test 1: PI3 Kinase Assay (PI3K KinaseGlo assay); type: biochemical; conditions: 1 μM ATP
Sequence (P42336 other isoform, or with tags, fused parts or gaps): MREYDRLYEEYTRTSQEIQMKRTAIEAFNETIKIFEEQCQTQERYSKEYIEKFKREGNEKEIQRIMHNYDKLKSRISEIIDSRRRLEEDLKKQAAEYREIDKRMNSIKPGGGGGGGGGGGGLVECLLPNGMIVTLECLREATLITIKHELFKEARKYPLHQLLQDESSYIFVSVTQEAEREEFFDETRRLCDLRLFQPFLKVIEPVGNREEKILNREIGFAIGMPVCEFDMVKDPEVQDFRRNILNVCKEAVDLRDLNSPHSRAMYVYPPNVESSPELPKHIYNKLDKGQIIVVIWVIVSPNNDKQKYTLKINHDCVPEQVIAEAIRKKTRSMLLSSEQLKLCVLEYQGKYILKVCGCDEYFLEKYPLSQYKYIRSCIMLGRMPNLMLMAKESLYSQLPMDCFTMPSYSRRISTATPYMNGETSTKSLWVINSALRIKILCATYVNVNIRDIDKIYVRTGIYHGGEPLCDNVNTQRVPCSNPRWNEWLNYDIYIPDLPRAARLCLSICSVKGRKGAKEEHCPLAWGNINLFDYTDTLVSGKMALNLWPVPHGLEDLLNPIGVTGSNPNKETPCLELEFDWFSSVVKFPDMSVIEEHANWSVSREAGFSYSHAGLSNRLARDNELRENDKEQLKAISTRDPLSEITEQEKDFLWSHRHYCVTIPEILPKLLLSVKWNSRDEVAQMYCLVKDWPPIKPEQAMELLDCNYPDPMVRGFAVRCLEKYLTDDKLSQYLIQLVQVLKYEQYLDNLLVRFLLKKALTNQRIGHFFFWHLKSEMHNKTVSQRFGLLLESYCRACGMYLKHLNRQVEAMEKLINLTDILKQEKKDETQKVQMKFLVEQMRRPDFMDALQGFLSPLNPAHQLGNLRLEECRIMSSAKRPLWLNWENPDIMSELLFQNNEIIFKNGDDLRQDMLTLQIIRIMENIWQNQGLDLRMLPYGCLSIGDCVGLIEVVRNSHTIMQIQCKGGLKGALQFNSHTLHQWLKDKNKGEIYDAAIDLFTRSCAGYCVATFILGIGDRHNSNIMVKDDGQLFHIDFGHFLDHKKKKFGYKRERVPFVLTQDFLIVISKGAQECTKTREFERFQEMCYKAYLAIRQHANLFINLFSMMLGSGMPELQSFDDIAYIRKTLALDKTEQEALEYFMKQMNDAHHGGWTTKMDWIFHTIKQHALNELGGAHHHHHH
Classification field. Basis: IC50. Definitions: low: < 3 µM; middle: ≥ 3 µM and < 6 µM; high: ≥ 6 µM

The following compounds have reported results that may help.
- c1cc2ccc(-c3nc4c(N5C6CCC5COC6)nc(N5CCOCC5)nc4[nH]3)cc2[nH]1 [Example 53]: high
- C[C@H]1COCCN1c1nc(N2CCOCC2)c2nc(-c3ccc4cc[nH]c4c3)[nH]c2n1 [Example 49]: middle

Which class is correct for the following compound? C[C@H]1COCCN1c1nc(N2CCC(O)CC2)nc2[nH]c(-c3cccc4[nH]ccc34)nc12 [Example 16] high

Which class is correct for the following compound? c1cc(-c2nc3c(N4C5CCC4COC5)nc(N4CCOCC4)nc3[nH]2)c2cc[nH]c2c1 [Example 54] middle

Which class is correct for the following compound? c1cc2ccc(-c3nc4c(N5C[C@@H]6C[C@H]5CO6)nc(N5CCOCC5)nc4[nH]3)cc2[nH]1 [Example 48] middle

Which class is correct for the following compound? COC1CCN(c2nc(N3CCOCC3)c3nc(-c4cccc5[nH]ccc45)[nH]c3n2)CC1 [Example 25] low

Which class is correct for the following compound? C[C@@H]1COCCN1c1nc(N2CCOCC2)nc2[nH]c(-c3ccc4cc[nH]c4c3)nc12 [Example 21] high

Which class is correct for the following compound? C[C@@H]1COCCN1c1nc(N2CCOC[C@@H]2C)nc2[nH]c(-c3cccc4[nH]ccc34)cc12 [Example 55] low

Which class is correct for the following compound? CC1(C)COCCN1c1nc(N2CCOCC2)nc2[nH]c(-c3cccc4[nH]ccc34)nc12 [Example 40] high

Which class is correct for the following compound? COc1ccc(-c2nc3c(N4CCOC[C@@H]4C)nc(N4CCOC[C@@H]4C)nc3[nH]2)cc1CO [Example 7] low

Which class is correct for the following compound? c1cc(-c2nc3c(N4CC5CCC(C4)O5)nc(N4CCOCC4)nc3[nH]2)c2cc[nH]c2c1 [Example 8] high

Measured values drawn from patent US8987257B2 for this set.
